# Test system: VEGFR-2 (Homo sapiens, UniProt P35968)
# Sequence (P35968 20-1356): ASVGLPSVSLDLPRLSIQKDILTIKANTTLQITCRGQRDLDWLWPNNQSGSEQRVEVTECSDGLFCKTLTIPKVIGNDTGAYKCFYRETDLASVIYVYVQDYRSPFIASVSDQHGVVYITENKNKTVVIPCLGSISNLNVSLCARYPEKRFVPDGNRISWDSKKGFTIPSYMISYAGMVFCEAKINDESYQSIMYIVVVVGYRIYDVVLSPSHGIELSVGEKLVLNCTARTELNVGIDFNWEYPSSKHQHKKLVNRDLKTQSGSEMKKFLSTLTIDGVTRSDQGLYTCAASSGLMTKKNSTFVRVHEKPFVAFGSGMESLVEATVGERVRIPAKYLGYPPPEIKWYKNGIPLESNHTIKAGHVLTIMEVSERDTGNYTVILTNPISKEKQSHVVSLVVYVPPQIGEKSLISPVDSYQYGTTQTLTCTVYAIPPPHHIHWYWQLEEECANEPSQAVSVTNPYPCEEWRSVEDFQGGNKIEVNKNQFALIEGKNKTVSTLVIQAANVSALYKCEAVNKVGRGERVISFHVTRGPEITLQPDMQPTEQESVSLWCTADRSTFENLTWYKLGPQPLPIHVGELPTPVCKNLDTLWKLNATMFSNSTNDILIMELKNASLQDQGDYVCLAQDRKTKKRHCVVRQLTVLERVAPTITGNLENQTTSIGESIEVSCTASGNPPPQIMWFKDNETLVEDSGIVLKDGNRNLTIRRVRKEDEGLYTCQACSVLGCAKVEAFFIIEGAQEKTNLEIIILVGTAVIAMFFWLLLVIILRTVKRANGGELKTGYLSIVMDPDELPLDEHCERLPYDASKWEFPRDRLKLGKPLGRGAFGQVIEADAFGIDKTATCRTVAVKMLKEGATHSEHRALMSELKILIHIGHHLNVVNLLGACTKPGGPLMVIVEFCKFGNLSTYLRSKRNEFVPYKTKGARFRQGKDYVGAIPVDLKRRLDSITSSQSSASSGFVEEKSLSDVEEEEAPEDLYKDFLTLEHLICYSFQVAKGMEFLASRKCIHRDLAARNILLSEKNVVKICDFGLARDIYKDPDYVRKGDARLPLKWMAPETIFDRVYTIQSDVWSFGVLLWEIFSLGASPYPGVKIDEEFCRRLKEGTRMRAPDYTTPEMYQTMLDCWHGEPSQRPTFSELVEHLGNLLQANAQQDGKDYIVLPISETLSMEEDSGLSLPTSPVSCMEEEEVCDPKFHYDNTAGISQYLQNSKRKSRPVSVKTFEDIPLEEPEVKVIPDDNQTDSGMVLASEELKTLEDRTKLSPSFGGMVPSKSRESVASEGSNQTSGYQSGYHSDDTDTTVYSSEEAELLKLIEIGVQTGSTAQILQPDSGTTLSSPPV
Measured property: IC50 (µM)

COc1cc(C2=C(c3c[nH]c4ccccc34)C(=O)NC2=O)cc(OC)c1OC	0.005
COc1cc2c3c(c4c5ccccc5[nH]c4c2c(OC)c1OC)C(=O)NC3=O	0.152
COc1cc(CN2C(=O)c3c(c4c5ccccc5[nH]c4c4c(OC)c(OC)c(OC)cc34)C2=O)c([N+](=O)[O-])cc1OC	44.8

Origin of the recorded values: paper PMC6274539
